biological target: PDE2 (Homo sapiens); construct: PDE2 was isolated from human platelets, provided by Etablissement Français du Sang-Alsace; tissue Etablissement Français du Sang-Alsace; host or cells: human platelets; assay: Inhibition of PDE2 (radioenzymatic phosphodiesterase assay); format: biochemical; details: Table 1; 10 μM compound; 1 μM cyclic AMP
MEASUREMENT LABEL: PDE2 percentage inhibition at 10 μM (%)
One number for each entry, in %.

Could you report PDE2 percentage inhibition at 10 μM for every entry in the following list?
1. COc1cc2c(c(OC)c1-c1ccccc1)C(c1cccc(C#CCNC(=O)OC(C)(C)C)c1)=NCC(=O)N2C
2. COc1cc2c(c(OC)c1-c1cccnc1)C(c1cccc(C(N)=O)c1)=NCC(=O)N2 [Compound 20]
3. COc1cc2c(c(OC)c1-c1cccnc1)C(c1cccc(C(N)=O)c1)=NCC(=O)N2 [Compound 19]
4. COc1cc2c(c(OC)c1-c1cccnc1)C(c1cccc(C#N)c1)=NCC(=O)N2

Result:
69
68
27
4

###

molecular target: PDE2 (Homo sapiens, UniProt O00408); construct: PDE2 was isolated from human platelets, provided by Etablissement Français du Sang-Alsace; tissue Etablissement Français du Sang-Alsace; host or cells: human platelets; assay: Inhibition of PDE2 (radioenzymatic phosphodiesterase assay); format: biochemical
Sequence (O00408 whole entry): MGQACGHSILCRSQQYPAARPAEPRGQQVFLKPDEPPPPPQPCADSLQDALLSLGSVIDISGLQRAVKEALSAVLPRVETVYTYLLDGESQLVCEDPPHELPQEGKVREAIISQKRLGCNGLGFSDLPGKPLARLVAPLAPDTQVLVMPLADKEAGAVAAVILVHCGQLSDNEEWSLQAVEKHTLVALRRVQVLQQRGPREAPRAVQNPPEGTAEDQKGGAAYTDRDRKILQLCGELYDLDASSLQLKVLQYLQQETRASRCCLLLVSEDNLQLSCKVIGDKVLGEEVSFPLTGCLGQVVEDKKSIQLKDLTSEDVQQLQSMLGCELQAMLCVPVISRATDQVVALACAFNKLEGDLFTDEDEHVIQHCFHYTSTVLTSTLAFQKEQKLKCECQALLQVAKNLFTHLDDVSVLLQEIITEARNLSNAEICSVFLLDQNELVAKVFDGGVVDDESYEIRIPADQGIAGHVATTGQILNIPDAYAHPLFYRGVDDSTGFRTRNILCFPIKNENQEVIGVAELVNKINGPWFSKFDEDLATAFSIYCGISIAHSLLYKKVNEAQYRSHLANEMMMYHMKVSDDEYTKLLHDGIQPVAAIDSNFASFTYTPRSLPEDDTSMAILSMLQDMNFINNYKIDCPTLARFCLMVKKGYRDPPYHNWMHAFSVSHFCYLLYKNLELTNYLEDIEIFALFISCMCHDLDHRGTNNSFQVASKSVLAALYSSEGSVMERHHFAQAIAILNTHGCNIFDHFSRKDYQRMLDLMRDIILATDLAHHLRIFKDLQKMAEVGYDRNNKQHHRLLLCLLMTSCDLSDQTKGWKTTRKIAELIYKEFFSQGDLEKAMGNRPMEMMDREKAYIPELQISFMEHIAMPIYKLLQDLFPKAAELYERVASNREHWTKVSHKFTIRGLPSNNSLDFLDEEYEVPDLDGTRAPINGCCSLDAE
MEASUREMENT LABEL: pIC50
Give bare numbers, as −log10 of the molar value.

Worked cases, answers included:
>>> readout_number("COc1cc2c(c(OC)c1-c1ccc(Cl)cc1)C(c1cccc(C#N)c1)=NCC(=O)N2")
6.14
>>> readout_number("COCCCc1cccc(C2=NCC(=O)N(C)c3cc(OC)c(-c4ccccc4)c(OC)c32)c1")
6.10
>>> readout_number("COc1cc2c(c(OC)c1-c1ccccc1)C(c1cccc(C#N)c1)=NCC(=O)N2")
5.52
>>> readout_number("COc1cc2c(c(OC)c1-c1ccccc1)C(c1cccc(C#N)c1)=NCC(=O)N2C")
5.74

Task: Would you kindly share the measured pIC50 for COc1cc2c(c(OC)c1-c1ccc(Cl)cc1)C(c1cccc(C#N)c1)=NCC(=O)N2C ?
Result: 5.34

###

biological target: PDE2 (Homo sapiens, UniProt O00408); construct: PDE2 was isolated from human platelets, provided by Etablissement Français du Sang-Alsace; tissue Etablissement Français du Sang-Alsace; host or cells: human platelets; assay: Inhibition of PDE2 (radioenzymatic phosphodiesterase assay); format: biochemical; conditions: read-out: PDE2 percentage inhibition at 10 μM, Table 1; 10 μM compound; 1 μM cyclic AMP
MEASUREMENT LABEL: inhibition at 10 µM (%)
Answers are plain numbers, in %.

>>> readout_number("COc1cc2c(c(OC)c1-c1cccnc1)C(c1cccc(C#N)c1)=NCC(=O)N2C")
56
>>> readout_number("COc1cc2c(c(OC)c1-c1ccccc1)C(c1cccc(C(N)=O)c1)=NCC(=O)N2Cc1ccccc1")
18
>>> readout_number("COc1cc2c(c(OC)c1-c1ccccc1)C(c1cccc(C#CCN)c1)=NCC(=O)N2C")
42

Now let's try a different one.
Task: Requested read-out inhibition at 10 µM, target or system PDE2 (Homo sapiens, UniProt O00408), entry COc1cc2c(c(OC)c1-c1ccccc1)C(c1cccc(C#N)c1)=NCC(=O)N2Cc1ccccc1
Result: 9
